system: T-47D breast; assay: NCI tumour cell line growth inhibition, 48 h; in the data active means GI50 below about 0.43 µM; inactive means the rest
Entry note: the call must match one of TRUE for active, FALSE for inactive

Look over these answered cases.
>>> df
                                   molecule    cat
0     O=C(NC(=S)Nc1cc(Cl)ccc1O)c1cccc(Br)c1  FALSE
1  O=C1OCC2=C1C(c1ccccc1)c1cc3c(cc1N2CCO)OCCO3 (configuration not stated)   TRUE
2  COc1ccc2nc3cc(Cl)ccc3c(NCCNc3c4ccc(Cl)cc4nc4ccc(OC)cc34)c2c1  FALSE
3  CC1(C)C(=O)/C(=C\c2cccnc2)C[C@]2(C)[C@H]3CC[C@@H]4[C@@H](C(=O)/C=C/c5ccncc5)CC[C@@]4(C)[C@]3(C)CC[C@@H]12  FALSE

[Q] Just curious, what result did CC(=O)c1cc(O)c2ccccc2c1O get here?
[A] FALSE

[Q] Test call, this molecule: Cc1cccc(Cc2cnc(NC(=O)CCc3ccc(C)o3)s2)c1
[A] FALSE

[Q] Identify the outcome logged in this assay for the molecule shown: CCSc1ccc(C2C(Br)C(=O)N2c2cc(OC)c(OC)c(OC)c2)cc1 (configuration not stated)
[A] FALSE

----------
system: UACC-62 melanoma; test: NCI tumour cell line growth inhibition, 48 h
test readout: TGI

>>> print(df.to_string())
                                   compound  assay_result
0  Cc1ccc(C(=O)CC2=Nc3nnc(CCCCCCCc4nnc5n4C(=O)C(CC(=O)c4ccc(C)cc4)=N5)n3C2=O)cc1      > 100 µM

Given item CCOC(=O)[C@@H]1ON2OC(OC3CCCC3(c3ccccc3)c3ccccc3)C(OC(C)=O)[C@H]3OC(=O)[C@@H]1C32 (stereo partly drawn) , the value recorded as its TGI is > 100 µM

Kindly note the recorded TGI for O=C(O)c1cc2ccccc2c2c1C(=O)c1ccccc1-2 , which is > 100 µM

Noted for COc1cc(CS(=O)c2ccc(O)cc2)cc(OC)c1OC (stereo not drawn) : its TGI reads > 100 µM

Item: CCC[C@@H]1C(=O)N=C(N)N1C(=O)OCc1ccccc1 | TGI: > 100 µM

The recorded TGI for entry Cc1c(Cl)cccc1NC(=O)c1sc2nc3c(cc2c1N)CCCCC3 equals > 50 µM

For COC(=O)C(NC(=O)c1ccccc1)C(c1ccc(Cl)cc1)P(=O)(OC)OC (stereo not drawn) the compound record lists TGI as > 100 µM

Lab book: TGI of Cc1cn(S(=O)(=O)c2ccccc2)c2c(OCc3ccccc3)cc(NS(C)(=O)=O)cc12 noted as > 89.2 µM

----------
Recorded TGI values for a group of molecules are listed next.
tested on: COLO 205 colon; assay: NCI tumour cell line growth inhibition, 48 h

Example molecules with recorded TGI:
In [3]: df
Out[3]:
                         molecule  assay_result
0  O=C1CSc2cc([N+](=O)[O-])ccc2N1      > 100 µM
1       Oc1ccc(N=Nc2ccccn2)c(O)c1      > 100 µM

Case CCCC(=O)[O-].N.N.N.N.N.[Co+3].[O-][Cl+3]([O-])([O-])[O-] , COLO 205 colon, TGI recorded as > 100 µM

So the reported TGI for O=S1Nc2c(Cl)cc(Cl)c(Cl)c2S1 (stereo not given) , on COLO 205 colon, turned out to be > 100 µM

Kindly note: COLO 205 colon, CN(C)CCCn1c(-c2nonc2N)nc2cnccc21 , TGI value reported: > 25 µM
